The measurements presented in this section are drawn from patent US20250163057A1.

# tested on: DCN1 (DCUND1) protein PONY domain (Homo sapiens (Human))
# test name: Off-rate measurement of reversible covalent molecules (jump dilution TR-FRET with Cy5 probe)
# Type: binding
# study conditions: inverse of rate constant K; jump dilution TR-FRET
Mark NO for residence time values under 80 min, and YES for everything at or above.

INSERT INTO assay_data (compound, group_label) VALUES
  ('CCN1C(=O)[C@@H](NC(=O)c2cccc(C(F)(F)F)c2)[C@@H](C2CC2)c2c(C(=O)N3CCOC[C@H]3C#N)nn(C3CCOCC3)c21', 'YES'),
  ('CCN1C(=O)[C@@H](NC(=O)c2cccc(C(F)(F)F)c2)[C@@H](C2CC2)c2c(C(=O)N3C[C@H](NC)C[C@H]3C#N)nn(C3CCOCC3)c21', 'NO'),
  ('CCN1C(=O)[C@@H](NC(=O)c2cccc(C(F)(F)F)c2)[C@@H](c2ccc(F)cc2)c2c(C(=O)N3CCS(=O)(=O)C[C@H]3C#N)nn(C3CCOCC3)c21 (mixture of isomers)', 'NO'),
  ('CCN1C(=O)[C@@H](NC(=O)c2cccc(C(F)(F)F)c2)[C@@H](C2CC2)c2c(C(=O)N3CC[C@H]3C#N)nn(C3CCOCC3)c21', 'YES'),
  ('CCN1C(=O)[C@@H](NC(=O)c2cccc(C(F)(F)F)c2)[C@@H](C2CC2)c2c(C(=O)N3CS(=O)(=O)C[C@@H]3C#N)nn(C3CCOCC3)c21', 'NO');

* * *

Measured IC50, listed per entry.
# System: Cullin-3 (CUL3) neddylation
# test name: AlphaLISA assay for Cullin-3 (CUL3) neddylation in TF 1 cells
# Format: cell-based
# study conditions: Homo sapiens, TF-1, 3 h, 3 hours treatment
outcome measure: IC50

INSERT INTO measurements (compound, measured_value) VALUES
  ('CCN1C(=O)[C@@H](NC(=O)c2cccc(C(F)(F)F)c2)[C@@H](c2ccc(F)cc2)c2c(C(=O)N3CC(F)(F)C[C@H]3C#N)nn(C3CCOCC3)c21', '≤ 100 nM'),
  ('CCN1C(=O)[C@@H](NC(=O)c2cccc(C(F)(F)F)c2)[C@@H](c2ccc(F)cc2)c2c(CN(C)C(=O)CCl)nn(-c3ccccc3)c21 (racemic)', '≤ 100 nM'),
  ('CCN1C(=O)[C@@H](NC(=O)c2cccc(C(F)(F)F)c2)[C@@H](c2ccc(F)cc2)c2c(C(=O)N(CC#N)CCN(C)C3COC3)nn(-c3ccccc3)c21 (racemic)', '≤ 100 nM');

* * *

# tested on: DCN1 (DCUND1) protein PONY domain (Homo sapiens (Human), UniProt Q96GG9)
# Sequence (Q96GG9 60-248): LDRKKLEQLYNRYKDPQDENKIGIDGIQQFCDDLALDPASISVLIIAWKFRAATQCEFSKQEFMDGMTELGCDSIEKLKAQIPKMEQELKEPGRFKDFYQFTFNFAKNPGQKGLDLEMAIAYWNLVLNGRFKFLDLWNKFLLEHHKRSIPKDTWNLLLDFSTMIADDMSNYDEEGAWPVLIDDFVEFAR
# test name: TR-FRET assay, DCN1 binding with FAM-labeled probe
# study conditions: read-out: TR FRET IC50 1 hr; 1 hr after treatment with compound
outcome measure: IC50

INSERT INTO measurements (compound, measured_value) VALUES
  ('CCN1C(=O)[C@@H](NC(=O)c2cccc(C(F)(F)F)c2)[C@@H](C2CC2)c2c(C(=O)N(CC#N)CC#N)nn(C3CCOCC3)c21 [Compound I-373]', '≤ 0.2 µM'),
  ('C=C(CN1CCC12COC2)C(=O)NCc1nn(-c2ccccc2)c2c1[C@H](c1ccc(F)cc1)[C@H](NC(=O)c1cccc(C(F)(F)F)c1)C(=O)N2CC [Compound I-644]', '≤ 0.2 µM'),
  ('CCN1C(=O)[C@@H](NC(=O)c2cccc(C(F)(F)F)c2)[C@@H](c2ccc(F)cc2)c2c(CNC#N)nn(-c3ccccc3)c21 [Compound I-140]', '≤ 0.2 µM'),
  ('CCN1C(=O)[C@@H](NC(=O)c2cccc(C(F)(F)F)c2)[C@@H](c2ccc(F)cc2)c2c(CNC/C=C/C(=O)N3CCCC3)nn(-c3ccccc3)c21 [Compound I-400]', '≤ 0.2 µM'),
  ('CCN1C(=O)[C@@H](NC(=O)c2cccc(C(F)(F)F)c2)[C@@H](c2ccc(F)cc2)c2c(C(=O)N3[C@H](C#N)C[C@H]4C[C@H]43)nn(C3CCOCC3)c21 [Compound I-329]', '≤ 0.2 µM'),
  ('CCN1C(=O)[C@@H](NC(=O)c2cccc(C(F)(F)F)c2)[C@@H](C2CC2)c2c(C(=O)N3[C@H](C#N)C[C@H]4C[C@H]43)nn(-c3ccccc3)c21 [Compound I-326]', '≤ 0.2 µM'),
  ('CCCn1nc(C(=O)N2[C@H](C#N)C[C@H]3C[C@H]32)c2c1N(CC)C(=O)[C@@H](NC(=O)c1cccc(C(F)(F)F)c1)[C@H]2C1CC1 [Compound I-328]', '≤ 0.2 µM'),
  ('CCN1C(=O)[C@@H](NC(=O)c2cccc(C(F)(F)F)c2)[C@@H](c2ccc(F)cc2)c2c(C(=O)N3CCC[C@H]3C#N)nn(-c3cccc(OCCCN4CCC5(CC4)COC5)c3)c21 [Compound I-336]', '≤ 0.2 µM'),
  ('CCN1C(=O)[C@@H](NC(=O)c2cccc(C(F)(F)F)c2)C(c2ccc(F)cc2)c2c(C(=O)N(C)C(C)C#N)nn(C3CCOCC3)c21 (some centres unmarked) [Compound I-305]', '≤ 0.2 µM'),
  ('CCN1C(=O)[C@@H](NC(=O)c2cccc(C(F)(F)F)c2)[C@@H](c2ccc(F)cc2)c2c(C(=O)N(C)[C@@H](C#N)CCN3CCN(C4COC4)CC3)nn(-c3ccccc3)c21 [Compound I-317]', '≤ 0.2 µM'),
  ('CCN1C(=O)[C@@H](NC(=O)c2cccc(C(F)(F)F)c2)[C@@H](C2CC2)c2c(C(=O)N3CCS(=O)(=O)C[C@H]3C#N)nn(-c3ccccc3)c21 [Compound I-659]', '≤ 0.2 µM');
